- Tested on: U251 CNS
- protocol description: NCI tumour cell line growth inhibition, 48 h
observation type: TGI

Some solved entries appear below for comparison.
COc1ccc2cc(CNCCOCCOCCNCc3ccc4cc(OC)ccc4c3)ccc2c1 | 8.46 µM
CCc1cc2c(cc1O)CC[C@@H]1[C@@H]2CC[C@]2(C)[C@@H](O)CC[C@@H]12 | 16.7 µM
O=Cc1cc2sc(C=O)cc2s1 | > 100 µM
COc1ccc(CC2OC3(CCCCC3)CC3CCCCN32)cc1 (stereo unspecified) | > 100 µM
CN(C)CCNC(=O)c1cccc2c(NC(CCCN=C(N)N)C(=O)O)c3ccccc3nc12 (stereo unspecified) | > 100 µM

API: value(readout= TGI, system= U251 CNS, query= CNC(=O)/C(C#N)=C(\N)N1CCCC1 )
> 100 µM

For the record COc1cccc2c1CCc1sc(CN3CCN(C)CC3)nc1-2 , what value of TGI is listed for U251 CNS?
> 100 µM

API: value(readout=TGI, system=U251 CNS) for record CCOC(=O)C(NS(=O)(=O)c1ccccc1)(C(F)(F)F)P(=O)(OCC(C)C)OCC(C)C (stereo unspecified)
> 100 µM

Any idea what TGI came out for O=S1(=O)CC#CC[C@@H](CO)[C@@H](CO)CC#CC1 on U251 CNS?
> 100 µM

Provide the documented TGI with U251 CNS as the system for O=C(NNC(=O)/C(=C/c1cccc([N+](=O)[O-])c1)NC(=O)c1ccccc1)Nc1ccc(Cl)cc1
28.4 µM

GET /values?readout=TGI&system=U251 CNS&item= CCN1C(=O)N(CC)C2C1NN=c1s/c(=C\c3ccc(Br)cc3)c(=O)n12 (stereo unspecified)
> 54.2 µM
